Molecular target: Protein tyrosine phosphatase 1B (human recombinant) (Homo sapiens, UniProt P18031)
Assay: PTP1B inhibition assay (p-NPP substrate)
Details: read-out: IC50 PTP1B inhibitory activity
Each record is given 1 if its reported IC50 is strictly below 4 µM. Records at or above 4 µM are given 0.

These solved cases illustrate the format of a correct answer.
[
  {
    "compound": "C=C[C@@]1(C)C[C@@H](OC(=O)c2ccccc2)[C@H]2[C@](O)(C1=O)[C@H](OC(C)=O)C[C@H]1C(C)(C)[C@H](OC(C)=O)[C@H](O)[C@H](OC(=O)c3ccccc3)[C@@]12C [Compound 3, orthosiphol B]",
    "classification": 0
  },
  {
    "compound": "C=C[C@@]1(C)CC(=O)[C@H]2[C@](O)(C1=O)[C@H](O)C[C@H]1C(C)(C)[C@H](OC(C)=O)[C@H](OC(C)=O)[C@H](OC(=O)c3ccccc3)[C@@]12C [Compound 6, orthosiphol I]",
    "classification": 1
  },
  {
    "compound": "C=CC1(C)CC(=O)C2C(O)(C1=O)C(O)CC1C(C)(C)C(OC(=O)c3ccccc3)C(OC(C)=O)C(OC(=O)c3ccccc3)C12C (stereo not shown) [Compound 7, orthosiphol N]",
    "classification": 1
  },
  {
    "compound": "C=CC1(C)CC(OC(=O)c2ccccc2)C2C(O)(C1=O)C(O)CC1C(C)(C)C(OC(C)=O)C(OC(C)=O)C(OC(=O)c3ccccc3)C12CO (stereo not shown) [Compound 1, siphonol B]",
    "classification": 0
  }
]

Ask: Given the entry C=C[C@@]1(C)C[C@@H](O)[C@H]2[C@](O)(C1=O)[C@H](O)C[C@H]1C(C)(C)[C@H](OC(C)=O)[C@H](OC(C)=O)[C@H](OC(=O)c3ccccc3)[C@@]12C [Compound 5, orthosiphol G] , would its reported IC50 be below 4 µM?
Result: 1

Ask: And C=C[C@@]1(C)C[C@@H](OC(=O)c2ccccc2)[C@H]2[C@](O)(C1=O)[C@H](O)C[C@H]1C(C)(C)[C@H](OC(C)=O)[C@H](OC(C)=O)[C@H](OC(=O)c3ccccc3)[C@@]12C [Compound 4, orthosiphol F] ?
Result: 0

Ask: And C=CC1(C)CC(OC(=O)c2ccccc2)C2C(O)(C1=O)C(O)CC1C(C)(C)C(OC(C)=O)C(OC(C)=O)C(OC(=O)c3ccccc3)C12COC(C)=O (stereo not shown) [Compound 2, siphonol D] ?
Result: 0

* * *

Target: Protein tyrosine phosphatase 1B (human recombinant) (Homo sapiens, UniProt P18031)
Sequence (P18031 1-435): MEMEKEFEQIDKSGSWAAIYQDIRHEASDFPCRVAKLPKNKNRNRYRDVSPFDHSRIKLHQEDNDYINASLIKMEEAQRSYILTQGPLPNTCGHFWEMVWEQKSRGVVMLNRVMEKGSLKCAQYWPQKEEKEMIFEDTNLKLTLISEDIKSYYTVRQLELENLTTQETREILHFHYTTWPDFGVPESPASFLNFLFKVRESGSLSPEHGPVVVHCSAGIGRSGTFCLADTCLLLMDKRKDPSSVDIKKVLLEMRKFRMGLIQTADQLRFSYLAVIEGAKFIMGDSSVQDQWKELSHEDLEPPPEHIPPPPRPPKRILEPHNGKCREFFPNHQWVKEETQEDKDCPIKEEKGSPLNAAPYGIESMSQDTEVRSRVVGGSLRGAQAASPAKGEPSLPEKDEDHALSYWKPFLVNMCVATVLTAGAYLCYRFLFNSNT
Assay: Determination of the inhibition mode (Lineweaver–Burk and Dixon plots)
Conditions: Dixon plot; p-NPP substrate
readout_name: pKi
# reply with the number alone; pKi is -log10 of concentration in mol/L

Ask: Need pKi of C=CC1(C)CC(=O)C2C(O)(C1=O)C(O)CC1C(C)(C)C(OC(=O)c3ccccc3)C(OC(C)=O)C(OC(=O)c3ccccc3)C12C (centres unmarked) [Compound 7, orthosiphol N] , thanks.
Result: 5.26

Ask: And C=CC1(C)CC(OC(=O)c2ccccc2)C2C(O)(C1=O)C(O)CC1C(C)(C)C(OC(C)=O)C(OC(C)=O)C(OC(=O)c3ccccc3)C12CO (centres unmarked) [Compound 1, siphonol B] ?
Result: 4.28
